Data origin: patent US20130230533A1

TARGET UNDER TEST: T1, Monomeric monkey CD48-mmH (monkey)
T1 construct: Soluble monkey CD48 with a myc-myc-hexa-histidine C-terminal tag; the whole entry is the construct; also called mfCD48-mmH
T1 chain: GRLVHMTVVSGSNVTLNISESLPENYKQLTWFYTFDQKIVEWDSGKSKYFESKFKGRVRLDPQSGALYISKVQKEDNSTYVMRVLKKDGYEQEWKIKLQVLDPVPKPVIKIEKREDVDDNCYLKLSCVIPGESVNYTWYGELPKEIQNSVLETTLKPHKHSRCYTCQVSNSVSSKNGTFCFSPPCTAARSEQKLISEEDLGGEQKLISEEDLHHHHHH
TEST METHOD NOTES: SPR (Biacore), antibody captured by anti-Fc, CD48 in solution, 37 C
Please use t for koff under 0.0004 s⁻¹ and f for everything else, ties included.

Problem: For the binder H4H1771P (antibody, human IgG4, V domains shown, Human IgG4 Fc (H4H)) VH: QVQLVQSGTEVKKPGASVKVSCKVSGYTLIDLSIHWVRQAPGEGLEWMGGFDPEESETIYAQKFQGRVTMTEDTSTDTAYMELSSLRSEDTAVYYCVTEPIFGILIHESWGQGTLVTVSS VL: DIVMTQTPLSSPVTLGQPASISCRSSHSPVHSNGHTYLSWLQQRPGQPPRILIYKISRRFSGVPDRFSGSGAGTDFTLKISRVETEDVGIYYCMQASQFPWTFGQGTKVEIK , is koff under 0.0004 s⁻¹? f

Quick check: koff of H4H1713N (antibody, V domains shown, Human IgG4 Fc (H4H)) VH: QVQLVQSGAEVKKPGASVKVSCKASGHTFTNYYIHWVRQAPGQGLEWMGITNPNDGNTRYAQKFQGRISMTWDTSTSTVFMELSSLKSEDTAVYYCAGLRYWFFDLWGRGTPVTVSS VL: DIQMTQSPSSVSASVGDRVTITCRASQDISSWLAWYQQKPGKAPNLLIFAASSLQSGVPSRFSGSGSGTDFTLTISSLQPEDFGTYYCQQTDNFPRTFGQGTKVEIN under 0.0004 s⁻¹? t

Confirm or reject: koff of H4H1772P (antibody, human IgG4, V domains shown, Human IgG4 Fc (H4H)) VH: EVQLVESGGGLVQPGGSLRLSCAASGFTFSSYWMSWVRQAPGKGLEWVANIMRDGSEKYYVDSVKGRFTISRDNAKNSLYLQMNSLRGEDTAVYYCARERGFYTNYGNWFDPWGQGTLVTVSS VL: DIVMTQSPLSLTVTPGESASISCRSSQSLLHSYGYNSLDWYLQKPGQSPQFLIYLVSNRASGVPDRFSGSGSGTDFTLKISRVEAEDVGVYYCMQVLQTPYTFGQGTKLEIK lies strictly below 0.0004 s⁻¹ f

Field: below-cutoff. Rule: recorded koff strictly less than 0.0004 s⁻¹. Subject: H4H1779P (antibody, human IgG4, V domains shown, Human IgG4 Fc (H4H)) VH: QVQLVESGGGVVQPGRSLRLSCAASGFTFSNYGMHWVRQAPGKGLEWVAVIWYDESSKHYADSVKGRFTISRDNSQNTLYLQMTSLRAEDTAVYYCARDRWTYSHYFEYWGQGTLVTVSS VL: DIQMTQSPSSVSASVGDRVTITCRASQDISSWVAWYQQKPGKAPKLLIYAASSLQSGVPSRFSGSGSGTDFTLTISSLQPEDFATYYCQQANSFPRTFGQGTKVEIK t

Would you kindly verify if koff of H4H1775P (antibody, human IgG4, V domains shown, Human IgG4 Fc (H4H)) VH: QVQLVESGGGVVQPGRSLRLSCAASGFTFSNYGMHWVRQAPGKGLEWVAVIWYDESGKHYADSVKGRFTISRDNSQNTLYLQMTSLRAEDTAVYYCARDRWTYSHYFEYWGQGTLVTVSS VL: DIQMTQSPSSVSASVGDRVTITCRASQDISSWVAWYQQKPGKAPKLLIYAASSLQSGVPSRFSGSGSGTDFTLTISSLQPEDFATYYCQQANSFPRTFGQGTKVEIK is strictly less than 0.0004 s⁻¹? t

API: query returns whether the binder falls strictly under 0.0004 s⁻¹ in koff. Query: H4H1770P (antibody, human IgG4, V domains shown, Human IgG4 Fc (H4H)) VH: QVQLVQSGAEVKKPGAAVKVSCKASGYTFTAYGISWVRQAPGQGLEWMGWISAYDGDTNNAQKFQGRVTMTTDTSSSTAYMELRSLGSDDTAVYYCARDRYSSSSGYFDYWGQGTLVTVSS VL: DIQMTQSPSSVSASVGDRVTITCRASQDISSWLAWSQQKPGKAPKALIYAASSLQSGVPSRFSGSGSGTDFTLTISSLQPEDFATYYCQQANSFPYTFGQGTKLEIK t
